- Target entity: T1, cynomolgus BDCA2 (cynomolgus monkey, UniProt A0A2K5UWP4 1-212)
- T1 construct: whole, on cells; also called Cyno BDCA2; cynoBDCA2
- T1 sequence: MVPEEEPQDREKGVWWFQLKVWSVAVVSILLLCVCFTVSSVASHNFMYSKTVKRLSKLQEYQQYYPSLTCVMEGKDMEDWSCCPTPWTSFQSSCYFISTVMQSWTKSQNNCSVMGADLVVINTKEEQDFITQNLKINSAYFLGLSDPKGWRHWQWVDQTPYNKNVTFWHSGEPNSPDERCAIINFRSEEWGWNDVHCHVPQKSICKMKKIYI
- Assay overview: FACS, 293F-cynoBDCA2 cells
Measurement name: pEC50
The scale used: pEC50 is minus the common logarithm of the concentration in molar units.

Look over these answered cases.
binder="Hu033-08 (antibody, IgG1, V domains shown, Humanized IgG1; also called Hu033-08(BM2)) VH: EVQLVESGGGLVKPGGSLRLSCAASGFTFSSYGMSWVRQAPGKGLEWVSTISSGDSYTYYPDSVKGRFTISRDNAKNSLYLQMNSLRAEDTAVYYCARQIYYDYAYYFDFWGQGTTVTVSS VL: EIVLTQSPATLSLSPGERATLSCRASESVSFRTSHLMHWYQQKPGQAPRLLIYGASNLESGIPARFSGSGSETDFTLTISRLEPEDFAVYFCQQSIEDPPTFGGGTKVEIK" measurement_name=pEC50 measured_result=8.82
binder="Hu033-10 (antibody, IgG1, V domains shown, Humanized IgG1; also called Hu033-10(BM4)) VH: EVQLVESGGGLVKPGGSLRLSCAASGFTFRSYGMSWVRQAPGKRLEWVSTISSGDSYTYYPDSVKGRFTISRDNAKNSLYLQMNSLRAEDTAVYYCARQIYYDYAYYFDFWGQGTTVTVSS VL: DIVLTQSPASLAVSPGQRATITCRASESVSFRTSHLMHWYQQKPGQPPKLLIYGASNLESGVPARFSGSGSETDFTLTINPVEAEDTANYYCQQSIEDPPTFGGGTKVEIK" measurement_name=pEC50 measured_result=8.90
binder="Hu033-04 (antibody, IgG1, V domains shown, Humanized IgG1; also called Hu033-04(BM0)) VH: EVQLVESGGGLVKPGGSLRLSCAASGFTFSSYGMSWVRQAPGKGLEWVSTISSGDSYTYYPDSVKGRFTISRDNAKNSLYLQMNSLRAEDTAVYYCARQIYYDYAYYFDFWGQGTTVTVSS VL: DIVMTQSPDSLAVSLGERATINCRASESVSFRTSHLMHWYQQKPGQPPKLLIYGASNLESGVPDRFSGSGSGTDFTLTISSLQAEDVAVYYCQQSIEDPPTFGGGTKVEIK" measurement_name=pEC50 measured_result=8.88
binder="Hu033-13 (antibody, IgG1, V domains shown, Humanized IgG1; also called Hu033-13(BM4)) VH: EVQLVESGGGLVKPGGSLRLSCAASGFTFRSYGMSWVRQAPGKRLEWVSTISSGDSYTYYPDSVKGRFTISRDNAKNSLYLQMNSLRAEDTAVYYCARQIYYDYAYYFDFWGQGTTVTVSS VL: DIVLTQSPDSLAVSLGERATINCRASESVSFRTSHLMHWYQQKPGQPPKLLIYGASNLESGVPDRFSGSGSGTDFTLTISSLQAEDVAVYFCQQSIEDPPTFGGGTKVEIK" measurement_name=pEC50 measured_result=8.95

Looking up Hu033-12 (antibody, IgG1, V domains shown, Humanized IgG1; also called Hu033-12(BM2)) VH: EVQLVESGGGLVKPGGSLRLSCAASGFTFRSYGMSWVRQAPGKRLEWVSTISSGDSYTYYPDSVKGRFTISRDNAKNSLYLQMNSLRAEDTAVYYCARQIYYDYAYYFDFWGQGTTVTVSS VL: DIVMTQSPDSLAVSLGERATINCRASESVSFRTSHLMHWYQQKPGQPPKLLIYGASNLESGVPDRFSGSGSGTDFTLTISSLQAEDVAVYYCQQSIEDPPTFGGGTKVEIK , I see its pEC50 listed as 8.97
